System: Human non-small cell lung cancer cells NCI-H1299
TEST PROTOCOL: NCI-H1299 cell proliferation inhibition (CellTiter-Glo)
Format: cell-based
SETTINGS: Homo sapiens, 72 h, cultured 3 days, table head NCI-H1975, method NCI-H1299
Procedure: 2. Determination of Cell Proliferation Activity of Compounds: NCI-H1299 cell proliferation inhibition screening method was established using CellTiter-fib detection reagent from Promega. Human non-small cell lung cancer cells NCI-H1299 were cultured in 25 cm^2 or 75 cm^2 plastic tissue culture flasks (Corning) filled with DMEM (Gibco) medium supplemented with 10% fetal bovine serum (Hyclone) under 37° C., 95% air, and 5% CO2, and subcultured 2-3 times a week. […]
pIC50: −log10 of the molar value.
READOUT NAME: pIC50

structure_string=Cc1cc2cnc(Nc3ccc(N4CCN(CCN(C)C)CC4)cc3)nc2n1-c1cccc(N=S(C)(C)=O)n1 readout_number=7.18
structure_string=CN1CCN(C2CCN(c3ccc(Nc4ncc5cc(C6CC6)n(-c6cccc(N=S(C)(C)=O)n6)c5n4)cc3F)CC2)CC1 readout_number=7.38
structure_string=Cc1cc(Nc2ncc3cc(C4CC4)n(-c4cccc(N=S(C)(C)=O)n4)c3n2)ccc1N1CCC(N2CCN(C)CC2)CC1 readout_number=7.25
structure_string=Cc1cc2cnc(Nc3ccc(N4CCN(C)CC4)cc3)nc2n1-c1cccc(N=S(C)(C)=O)n1 readout_number=7.23

====

TEST PROTOCOL: Animal pharmacokinetic studies in rats
Format: in vivo
SETTINGS: rat, po; male rats, 5 mg/kg single intragastric administration, plasma
Method: 3. Animal Pharmacokinetic Studies of Compounds: Animal pharmacokinetic experiments were conducted with 3 healthy adult male rats from Beijing Vital River Laboratory Animal Technology Co., Ltd. The compound was suspended in a 20% solution of sulfobutyl ether-β-cyclodextrin (W/W/V) at a concentration of 1 mg/mL, The rats were subjected to 5 mg/kg suspension of the compound by single intragastric administration with a dosing volume of 5 mL/kg. […]
READOUT NAME: half-life (h)

structure_string=Cc1cc2cnc(Nc3ccc(N4CCC(N5CCN(C)CC5)CC4)cc3)nc2n1-c1cccc(C(C)(C)O)n1 unit_string=h readout_number=9.2
structure_string=CN1CCN(C2CCN(c3ccc(Nc4ncc5cc(C6CC6)n(-c6cccc(C(C)(C)O)n6)c5n4)cc3F)CC2)CC1 unit_string=h readout_number=13.6

P: CN1CCN(c2ccc(Nc3ncc4c(F)c(C5CC5)n(-c5cccc(C(C)(C)O)n5)c4n3)cc2)CC1
Q: CN1CCN(C2CCN(c3ccc(Nc4ncc5cc(C6CC6)n(-c6cccc(C(C)(C)O)n6)c5n4)cc3)CC2)CC1
# input Given P and given Q , which shows the smaller recorded half-life? Pick one; state its label.
# output Q
(Q: 7.6 h, P: 11.2 h)

====

ASSAYED TARGET: WEE1 kinase (Homo sapiens, UniProt P30291)
Sequence (P30291 whole entry): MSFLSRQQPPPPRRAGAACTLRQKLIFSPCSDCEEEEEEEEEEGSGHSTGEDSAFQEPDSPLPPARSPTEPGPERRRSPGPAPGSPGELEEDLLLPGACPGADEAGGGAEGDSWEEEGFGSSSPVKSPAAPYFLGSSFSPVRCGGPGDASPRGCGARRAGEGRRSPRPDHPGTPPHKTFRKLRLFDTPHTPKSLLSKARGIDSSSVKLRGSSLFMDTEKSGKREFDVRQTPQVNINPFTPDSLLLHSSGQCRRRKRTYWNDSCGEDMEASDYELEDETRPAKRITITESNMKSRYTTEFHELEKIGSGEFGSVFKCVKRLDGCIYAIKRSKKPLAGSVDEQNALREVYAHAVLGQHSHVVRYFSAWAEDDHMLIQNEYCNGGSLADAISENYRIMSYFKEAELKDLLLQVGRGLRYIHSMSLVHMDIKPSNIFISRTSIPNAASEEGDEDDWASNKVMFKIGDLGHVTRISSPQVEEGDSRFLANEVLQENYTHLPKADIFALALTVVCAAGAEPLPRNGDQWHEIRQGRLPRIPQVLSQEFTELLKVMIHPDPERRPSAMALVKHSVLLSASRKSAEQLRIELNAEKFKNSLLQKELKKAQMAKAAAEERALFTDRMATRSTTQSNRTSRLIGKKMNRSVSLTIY
pIC50: −log10 of the molar value.
READOUT NAME: pIC50

Worked examples follow.
compound=Cc1cc(Nc2ncc3cc(C4CC4)n(-c4cccc(N=S(C)(C)=O)n4)c3n2)ccc1N1CCC(N2CCN(C)CC2)CC1 assayed_target="WEE1 kinase (Homo sapiens, UniProt P30291)" readout_number=9.20
compound=CN1[C@@H]2CC[C@H]1CN(c1ccc(Nc3ncc4c(F)c(C5CC5)n(-c5cccc(N=S(C)(C)=O)n5)c4n3)cc1)C2 assayed_target="WEE1 kinase (Homo sapiens, UniProt P30291)" readout_number=9.24
compound=Cc1cc2cnc(Nc3ccc(N4CCC(N5CCN(C)CC5)CC4)cc3)nc2n1-c1cccc(N=S(C)(C)=O)n1 assayed_target="WEE1 kinase (Homo sapiens, UniProt P30291)" readout_number=9.66
compound=CN1[C@@H]2CC[C@H]1CN(c1ccc(Nc3ncc4cc(C5CC5)n(-c5cccc(N=S(C)(C)=O)n5)c4n3)cc1)C2 assayed_target="WEE1 kinase (Homo sapiens, UniProt P30291)" readout_number=9.48
compound=CS(C)(=O)=Nc1cccc(-n2c(C3CC3)c(F)c3cnc(Nc4ccc(N5CCC(N6CCOCC6)CC5)cc4)nc32)n1 assayed_target="WEE1 kinase (Homo sapiens, UniProt P30291)" readout_number=9.21

a: CCc1cc2cnc(Nc3ccc(N4CCC(N5CCN(C)CC5)CC4)cc3)nc2n1-c1cccc(N=S(C)(C)=O)n1
b: CN1CCN(C2CCN(c3ccc(Nc4ncc5cc(C6CC6)n(-c6cccc(N=S(C)(C)=O)n6)c5n4)cc3Cl)CC2)CC1
c: CCCc1cc2cnc(Nc3ccc(N4CCC5(CCN(C)CC5)CC4)cc3)nc2n1-c1cccc(N=S(C)(C)=O)n1
# input Kindly order the items shown according to pIC50, from the highest value down. # the answer lists labels in the order requested
# output c, a, b
(c: 9.52, a: 9.28, b: 8.98)

Data provenance: patent US20220194960A1
